# TESTED_SYSTEM: human Peroxisome Proliferator-activated Receptor alpha (PPARa), PPARA (gene 5465)
# ASSAY_NOTES: ATG_PPARa_TRANS: Attagene TRANS-FACTORIAL HepG2 Assay for human Peroxisome Proliferator-activated Receptor alpha (PPARa) (AID 2283001)
Inconclusive results are not listed. Calls of active or inactive are those of the source. How the source made its calls: active means hit-call score of the fitted dose curve at least 0.9, where 1 is the maximum; inconclusive means response in the unintended direction; inactive means score below 0.9.
Classes used: active, inactive

- C=CCOc1nc(OCC=C)nc(OCC=C)n1: inactive
- CCCCCCCCC: inactive
- C=CC(=O)OCCn1c(=O)n(CCOC(=O)C=C)c(=O)n(CCOC(=O)C=C)c1=O: active
- O=C(Cl)c1cccc(C(=O)Cl)c1: inactive
- Cc1ccc(S)cc1: inactive
- OCCOCCOCCOCCO: inactive
- CCCCC(CC)COC(=O)/C=C\C(=O)OCC(CC)CCCC (stereo not given): inactive
- Clc1ccc2c(c1)C(N1CCNCC1)=Nc1ccccc1O2: active
- CCC(=O)OCCC(C)CCC=C(C)C (stereo not given): inactive
- OC[C@H]1O[C@H](O[C@]2(CCl)O[C@H](CCl)[C@@H](O)[C@@H]2O)[C@H](O)[C@@H](O)[C@H]1Cl: inactive
- O=C1CCCCCCCCCCCCCCO1: active
- CCCCCCCCCCCCCOS(=O)(=O)O: active
- CCc1ccc(C=O)cc1: inactive
- O=C(COc1ccc(Cl)cc1)N1CCN(Cc2ccc3c(c2)OCO3)CC1: inactive
- Nc1cc(Cl)c(O)c(Cl)c1: inactive
- NCCCCCCN: inactive
- OC1OC[C@@H](O)[C@H](O)[C@H]1O (stereo not given in full): inactive
- O=C(Nc1ccccc1)c1cc([N+](=O)[O-])ccc1Cl: inactive
- Clc1cccc(Cl)n1: inactive
- S=C(S)NCCNC(=S)S: inactive
- COc1ccc(Cl)cc1C: inactive
- C=COCCOCCOCCOC=C: inactive
- CCCC(=O)C(C)=O: inactive
- O=C(O)COCCN1CCN(C(c2ccccc2)c2ccc(Cl)cc2)CC1 (stereo not given): inactive
- Cc1ccc(C(=O)c2cc(O)c(O)c([N+](=O)[O-])c2)cc1: inactive
- CC(=O)OCc1ccc2c(c1)OCO2: inactive
- COc1ccc(O)cc1: inactive
- O=C(O)Cc1cccc2ccccc12: inactive
- Clc1sc(Cl)c(Cl)c1Cl: inactive
- N#Cc1ccc(CC(=NNC(=O)Nc2ccc(OC(F)(F)F)cc2)c2cccc(C(F)(F)F)c2)cc1: inactive
- C=CC(=O)NCOCC(C)C: inactive
- c1ccc2c(c1)c1cccc3ccc4cccc2c4c31: inactive
- C=CC(=O)OCCOCCOCC: inactive
- Cc1ccc(C(C)C)cc1O: inactive
- CC(C)[C@H]1CC[C@@H](C)CC1=O: inactive
- CC(C)=CCO: inactive
- CC(CN1c2ccccc2Sc2ccccc21)N(C)C (stereo not given): inactive
- C/C=C(\C)C(=O)OCc1ccccc1: inactive
- CC1(C)[C@@H]2CC[C@@]1(C)[C@H](O)C2: inactive
- O=S(=O)(O)NC1CCCCC1: inactive
- O=C(O)CCCCC1CCSS1 (stereo not given): inactive
- CCCCCC(CO)CCC (stereo not given): inactive
- CCC(O)CO (stereo not given): inactive
- CC(C#N)(CCC(=O)O)N=NC(C)(C#N)CCC(=O)O (stereo not given): inactive
- CC1(C)CCC(C)(C)c2cc(C(=O)Nc3ccc(C(=O)O)cc3)ccc21: inactive
- C=C[C@@H](C)CCC=C(C)C: inactive
- CC(C)=CCC[C@H](C)CC=O: inactive
- CC(=O)Nc1ccc(CC(=O)O)cc1: inactive
- c1cc(C(c2ccc(OCC3CO3)cc2)c2ccc(OCC3CO3)cc2)ccc1OCC1CO1 (stereo not given): inactive
- CCCCCCCCCCCCN(CCCCCCCCCCCC)CCCCCCCCCCCC: inactive
- CC(C=O)Cc1ccc(C(C)C)cc1 (stereo not given): active
- O=C(O)CCCCCCCC(=O)O: inactive
- Cc1ccc2sc3cccc(C)c3c2c1: inactive
- C=CC(C)(O)CCC=C(C)CCC=C(C)C (stereo not given): inactive
- CCCCNC(=O)NS(=O)(=O)c1ccc(C)cc1: inactive
- O=C(O)CCSCCC(=O)O: inactive
- NC(=O)Nc1ccc(Cl)cc1: inactive
- Cc1ccc2n[nH]nc2c1: inactive
- CCCC(C)C=O (stereo not given): inactive
- C=C(C)C(=O)OCCOC(=O)CC(C)=O: inactive

---

# ASSAY_NOTES: ATG_PPRE_CIS: Attagene CIS-FACTORIAL HepG2 Assay for human Peroxisome Proliferator-activated Response Element (PPRE) (AID 2282958)
# APPLIED_CONDITIONS: HepG2 PPRE cis-element reporter, Attagene transcription factor profiling; actives raise or lower the signal
Active and inactive are the calls of the source. How the source made its calls: active means hit-call score of the fitted dose curve at least 0.9, where 1 is the maximum; inactive means score below 0.9.
Labels: active, inactive

- O=C(O)CN(CCN(CC(=O)O)CC(=O)O)CCN(CC(=O)O)CC(=O)O: inactive
- N#Cc1nc(Cl)c(Cl)c(Cl)c1Cl: inactive
- C=C(C)[C@@H]1CCC2=CC(=O)C[C@@H](C)[C@]2(C)C1: inactive
- CCOC(=S)SSC(=S)OCC: inactive
- Cc1ccc(C=O)s1: inactive
- C=CC(C)(O)CCC=C(C)CCC=C(C)C (configuration not stated): inactive
- Cc1ccc(C(=O)c2cc(O)c(O)c([N+](=O)[O-])c2)cc1: active
- CSc1nnc(C(C)(C)C)c(=O)[nH]1: inactive
- ClCCCl: inactive
- N#Cc1ccc(CC(=NNC(=O)Nc2ccc(OC(F)(F)F)cc2)c2cccc(C(F)(F)F)c2)cc1: inactive
- CC1=CC(=O)NS(=O)(=O)O1: inactive
- O=C(O)c1snc(Cl)c1Cl: inactive
- CC(C)(N)CO: inactive
- CCCCCOC(=O)CCC: inactive
- C=CCOC(=O)CCC1CCCCC1: inactive
- CCCC(=O)C(C)=O: inactive
- CC1CCC(C(C)CS)CC1S (configuration not stated): inactive
- C[C@H]1C[C@@H]2[C@H]([C@@H](O)C[C@@]3(C)[C@H]2CC[C@]3(O)C(=O)CO)[C@@]2(C)C=CC(=O)C=C12: inactive
- C[C@]12CC[C@H]3[C@@H](CCC4=CC(=O)CC[C@@]43C)[C@@H]1CC[C@@H]2C(=O)CO: inactive
- CC(C)C(C)(C)C(C)(C)C(C)(C)S: inactive
- CCc1ccc(C=O)cc1: inactive
- CCCCNC(=O)NS(=O)(=O)c1ccc(C)cc1: inactive
- CN(C)C(=N)N=C(N)N: inactive
- CCC(=O)OCCC(C)CCC=C(C)C (configuration not stated): inactive
- C=C(C)C(=O)OCCOC(=O)CC(C)=O: inactive
- COc1cc(C=O)ccc1OC(=O)C(C)C: inactive
- CC(C)(C)c1cc(CCC(=O)NN)cc(C(C)(C)C)c1O: inactive
- O=P(c1ccccc1)(c1ccccc1)c1ccccc1: inactive
- O=[N+]([O-])c1ccc(Nc2ccc(Nc3ccccc3)c(S(=O)(=O)O)c2)c([N+](=O)[O-])c1: active
- O=C(O)c1cn(-c2ccc(F)cc2)c2cc(N3CCNCC3)c(F)cc2c1=O: inactive
- CCCCCCCCC: inactive
- CNC(=O)Oc1ccc2c(c1)[C@]1(C)CCN(C)[C@@H]1N2C: inactive
- CC(O)C(C)O (configuration not stated): inactive
- OCCOc1cccc(OCCO)c1: inactive
- CCCCOCCOCCSC#N: inactive
- CCCCCCCCCC=O: active
- CNCCO: inactive
- C=CC(=O)OCC(O)COc1ccccc1 (configuration not stated): inactive
- O=C1OC2(c3cc(Br)c(O)c(Br)c3Oc3c2cc(Br)c(O)c3Br)c2c(Cl)c(Cl)c(Cl)c(Cl)c21: inactive
- CCCc1c(OCCCOc2ccc(OCC(=O)O)cc2)ccc(C(C)=O)c1O: active
- O=C(O)C[C@H](O)C[C@H](O)/C=C/c1c(C2CC2)nc2ccccc2c1-c1ccc(F)cc1: inactive
- CC(C)OP(=O)(CP(=O)(OC(C)C)OC(C)C)OC(C)C: inactive
- CCCCCCCCCCCCSC: inactive
- CO[Si](CCCn1c(=O)n(CCC[Si](OC)(OC)OC)c(=O)n(CCC[Si](OC)(OC)OC)c1=O)(OC)OC: inactive
- COc1ccc(O)cc1: inactive
- Cc1ccc2sc3cccc(C)c3c2c1: inactive
- Cc1ccc(S)cc1: inactive
- CCCC/C=C\CCCCCCCCCC=O: inactive
- Clc1nc(C(Cl)(Cl)Cl)c(Cl)c(Cl)c1Cl: inactive
- Cc1ccc(O)c(C(C)(C)C)c1: inactive
- CC(=O)Nc1ccc(C)cc1C: inactive
- O=C1CCCCCCCCCCOCCCCO1: inactive
- CCCC(=O)OCCC(C)CCC=C(C)C (configuration not stated): inactive
- CN(C)CCOCCN(C)C: inactive
- O=c1[nH]nnc2ccccc12: inactive
- O=C(O)Cc1cccc2ccccc12: active
- CCC(C(=O)NC(N)=O)c1ccccc1 (configuration not stated): inactive
